Each recorded value in this set is attributed to ChEMBL document CHEMBL1125029.

Target: UniProt:P10980
Sequence (whole entry): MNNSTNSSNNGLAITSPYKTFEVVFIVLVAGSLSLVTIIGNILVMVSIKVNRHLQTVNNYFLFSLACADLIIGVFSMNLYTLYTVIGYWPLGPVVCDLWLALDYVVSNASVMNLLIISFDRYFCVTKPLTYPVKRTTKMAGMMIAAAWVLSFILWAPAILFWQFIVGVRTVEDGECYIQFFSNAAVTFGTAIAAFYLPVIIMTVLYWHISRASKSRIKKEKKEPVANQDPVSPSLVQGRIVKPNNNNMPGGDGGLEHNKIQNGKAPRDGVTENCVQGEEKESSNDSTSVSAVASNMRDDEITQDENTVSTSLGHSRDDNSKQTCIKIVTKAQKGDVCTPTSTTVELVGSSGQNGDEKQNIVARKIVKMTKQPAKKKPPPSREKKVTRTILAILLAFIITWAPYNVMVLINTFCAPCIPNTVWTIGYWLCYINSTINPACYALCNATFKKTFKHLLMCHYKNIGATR
Assay: Muscarinic 2 receptor agonistic activity was determined as the selectivity ratio of Ki against [3H]QNB+ Gpp(NH)p to that of [3H]QNB
Assay type: functional
observation.type: Ratio

>>> readout_value("CN(C)CC#C[C@H]1CCCN1.Cl.Cl")
1
>>> readout_value("C(#C[C@H]1CCCN1)CN1CCCC1.Cl.Cl")
1.5

1 = COC(=O)N1CCC[C@@H]1C#CCN1CCCC1
2 = CC(C)(C)OC(=O)N1CCC[C@H]1C#CCN1CCCC1
3 = CC(=O)N1CCC[C@@H]1C#CCN(C)C
4 = CN(C)CC#C[C@@H]1CCCN1.Cl.Cl
Exercise: Endpoint returns the given molecules ordered by ascending Ratio. Put the labels in the requested order and write them down.
Key: 4, 1, 3, 2
(4: 1, 1: 1.7, 3: 3.6, 2: 6.9)

====

target: UniProtKB P08482; assay: Muscarinic 1 receptor agonistic activity as the selectivity ratio of Ki against [3H]-QNB+ Gpp(NH)p to that of [3H]PZ; format: functional
observation.type: Ratio

Field: example entries. Status: answers known.
>>> readout_value("CN(C)CC#C[C@@H]1CCCN1C(=O)OC(C)(C)C")
1.6
>>> readout_value("CN(C)CC#C[C@@H]1CCCN1.Cl.Cl")
1.4
>>> readout_value("CN(C)CC#C[C@H]1CCCN1C(=O)OC(C)(C)C")
3.5
>>> readout_value("O=CN1CCC[C@H]1C#CCN1CCCC1")
62

a = CS(=O)(=O)N1CCC[C@H]1C#CCN1CCCC1.Cl
b = CC(=O)N1CCC[C@H]1C#CCN1CCCC1.Cl
Exercise: Hi team, can someone confirm which has the larger Ratio: a or b ? Thanks. Field: selected label. Fill in the label of the entry you choose.
Key: b
(b: 11, a: 2.5)

====

target: Muscarinic acetylcholine receptor M1 (Rattus norvegicus); assay: Muscarinic 1 receptor agonistic activity as the selectivity ratio of Ki against [3H]-QNB to that of [3H]PZ; assay type: functional
observation.type: Ratio

Field: example entries. Status: answers known.
>>> readout_value("CC(=O)N1CCC[C@H]1C#CCN(C)C")
1.3
>>> readout_value("CC(=O)N1CCC[C@@H]1C#CCN1CCCC1.Cl")
3.6

P = CS(=O)(=O)N1CCC[C@H]1C#CCN1CCCC1.Cl
Q = Cl.O=C(N1CCC[C@@H]1C#CCN1CCCC1)C(F)(F)F
R = C(#C[C@@H]1CCCN1)CN1CCCC1.Cl.Cl
S = O=CN1CCC[C@@H]1C#CCN1CCCC1
T = CCOC(=O)N1CCC[C@@H]1C#CCN1CCCC1
Exercise: Hello, I need these entries ordered by Ratio, highest reading first. Thanks! Put the labels in the requested order and write them down.
Key: Q, T, S, P, R

1 = CN(C)CC#C[C@@H]1CCCN1.Cl.Cl
2 = CC(=O)N1CCC[C@H]1C#CCN1CCCC1.Cl
Exercise: Returns the identifier with the smallest measured Ratio among 1 and 2 . Field: selected label. Fill in the label of the entry you choose.
Key: 1

A = Cl.O=C(N1CCC[C@H]1C#CCN1CCCC1)C(F)(F)F
B = CCOC(=O)N1CCC[C@H]1C#CCN1CCCC1
Exercise: Hi team, can someone confirm which has the larger Ratio: A or B ? Thanks. Field: selected label. Fill in the label of the entry you choose.
Key: B
(B: 8.5, A: 2.1)

A = CC(=O)N1CCC[C@@H]1C#CCN(C)C
B = CN(C)CC#C[C@H]1CCCN1.Cl.Cl
Exercise: Returns the identifier with the smallest measured Ratio among A and B . Field: selected label. Fill in the label of the entry you choose.
Key: B
(B: 1.1, A: 2.2)

a = C(#C[C@H]1CCCN1)CN1CCCC1.Cl.Cl
b = CC(C)(C)OC(=O)N1CCC[C@@H]1C#CCN1CCCC1
c = CS(=O)(=O)N1CCC[C@@H]1C#CCN1CCCC1.Cl
Exercise: Hello, I need these entries ordered by Ratio, highest reading first. Thanks! Put the labels in the requested order and write them down.
Key: b, a, c

====

target: Muscarinic acetylcholine receptor M2 (Rattus norvegicus) (UniProt P10980); experiment: Muscarinic 2 receptor agonistic activity was determined as the selectivity ratio of Ki against [3H]QNB+ Gpp(NH)p to that of [3H]QNB; type: functional
observation.type: Ratio

>>> readout_value("CCOC(=O)N1CCC[C@H]1C#CCN1CCCC1")
1.2
>>> readout_value("C(#C[C@@H]1CCCN1)CN1CCCC1.Cl.Cl")
1.3

1 = COC(=O)N1CCC[C@H]1C#CCN1CCCC1
2 = Cl.O=C(N1CCC[C@@H]1C#CCN1CCCC1)C(F)(F)F
Exercise: Hi team, can someone confirm which has the larger Ratio: 1 or 2 ? Thanks. Field: selected label. Fill in the label of the entry you choose.
Key: 1
(1: 1.3, 2: 0.9)

====

biological target: Muscarinic acetylcholine receptor M1 (Rattus norvegicus); experiment: Muscarinic 1 receptor agonistic activity as the selectivity ratio of Ki against [3H]-QNB+ Gpp(NH)p to that of [3H]PZ; format: functional
observation.type: Ratio

Field: example entries. Status: answers known.
>>> readout_value("Cl.O=C(N1CCC[C@@H]1C#CCN1CCCC1)C(F)(F)F")
7.6
>>> readout_value("COC(=O)N1CCC[C@H]1C#CCN1CCCC1")
3.9

I = O=CN1CCC[C@@H]1C#CCN1CCCC1
II = CCOC(=O)N1CCC[C@H]1C#CCN1CCCC1
III = CC(=O)N1CCC[C@H]1C#CCN(C)C
IV = CN(C)CC#C[C@H]1CCCN1.Cl.Cl
Exercise: Endpoint returns the given molecules ordered by ascending Ratio. Put the labels in the requested order and write them down.
Key: IV, I, III, II
(IV: 1.2, I: 2.5, III: 4.4, II: 10)

I = CC(=O)N1CCC[C@@H]1C#CCN1CCCC1.Cl
II = CC(=O)N1CCC[C@@H]1C#CC[N+](C)(C)C
Exercise: Returns the identifier with the smallest measured Ratio among I and II . Field: selected label. Fill in the label of the entry you choose.
Key: II

====

Target: UniProt:P08482
Sequence (whole entry): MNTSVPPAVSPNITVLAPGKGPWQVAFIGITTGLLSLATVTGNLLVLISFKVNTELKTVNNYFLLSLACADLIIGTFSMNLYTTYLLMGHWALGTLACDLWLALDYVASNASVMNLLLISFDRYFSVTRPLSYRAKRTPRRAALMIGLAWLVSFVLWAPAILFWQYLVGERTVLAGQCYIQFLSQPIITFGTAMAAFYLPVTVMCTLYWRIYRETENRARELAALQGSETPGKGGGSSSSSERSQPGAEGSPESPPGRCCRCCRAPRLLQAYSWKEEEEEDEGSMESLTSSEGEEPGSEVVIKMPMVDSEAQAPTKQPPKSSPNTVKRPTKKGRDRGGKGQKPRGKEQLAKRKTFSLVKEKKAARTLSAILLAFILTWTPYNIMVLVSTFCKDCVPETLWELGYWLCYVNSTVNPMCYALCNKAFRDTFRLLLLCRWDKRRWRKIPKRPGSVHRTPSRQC
Assay: Muscarinic 1 receptor agonistic activity as the selectivity ratio of Ki against [3H]-QNB+ Gpp(NH)p to that of [3H]PZ
Type: functional
observation.type: Ratio

Field: example entries. Status: answers known.
>>> readout_value("CC(=O)N1CCC[C@H]1C#CC[N+](C)(C)C")
3.4
>>> readout_value("O=C1CCCN1CC#CCN1CCCC1 [OXOTREMORINE]")
1

a = C(#C[C@H]1CCCN1)CN1CCCC1.Cl.Cl
b = CC(C)(C)OC(=O)N1CCC[C@H]1C#CCN1CCCC1
Exercise: Returns the identifier with the smallest measured Ratio among a and b . Field: selected label. Fill in the label of the entry you choose.
Key: a
